# Test system: PC14
# Assay Name: Cell-based assay, anti-proliferative activity (Cell Counting Kit-8, 72 hours)
# Reported Conditions: Homo sapiens, PC-14; PC14 cells, 72 hours, Cell Counting Kit-8; read-out: IC50 (μM) PC14
Criterion: IC50 strictly under 1 µM. Met: Satisfied. Not met: Not satisfied.

Worked examples follow.
{"Molecule": "COc1cc(OC)c(-c2cn3cc(NCCN)c(N4CCN(S(=O)(=O)C5CC5)CC4)nc3n2)cc1Cl", "Class Assignment": "Not satisfied"}
{"Molecule": "COc1cc(OC)c(-c2cn3ccc(N4CCN(C(=O)OC(C)(C)C)C(C)C4)cc3n2)cc1Cl (centres unmarked)", "Class Assignment": "Satisfied"}
{"Molecule": "CCc1cc(OC)c(Cl)cc1-c1cn2ccc(N3CCNCC3)cc2n1", "Class Assignment": "Not satisfied"}
{"Molecule": "COc1cc(OC)c(-c2cn3ccc(N4CCN(c5ccnc(N(C)C)n5)CC4)cc3n2)cc1Cl", "Class Assignment": "Satisfied"}
{"Molecule": "COc1cc(OC)c(-c2cn3ccc(N4CCN(c5nccc(N)n5)CC4)cc3n2)cc1Cl", "Class Assignment": "Satisfied"}

Exercise: Hello, I'm reviewing records and need to know if IC50 of "COc1cc(OC)c(-c2cn3ccc(OC4CCN(S(=O)(=O)c5nccn5C)CC4)cc3n2)cc1Cl" is below 1 µM. Could you check?
Solution: Not satisfied

Exercise: Problem: For the molecule "COc1cc(OC)c(-c2cn3cc(NCCN)c(N4CCN(S(=O)(=O)C5CC5)CC4)cc3n2)cc1Cl" , is IC50 under 1 µM?
Solution: Not satisfied

meta.source: patent US10508109B2
